System: A2780/T cells (PTX-resistant, ABCB1-overexpressing ovarian cancer cells)
assay: cells
Format: cell-based, human
assay context: A2780/T, 48 h, drug +9 μM nobiletin (N); read-out: IC50 ± SD
endpoint: pIC50
Scale for pIC50: -log10 of concentration given in mol/L; no unit attached.

Q: For COc1cccc2c1C(=O)c1c(O)c3c(c(O)c1C2=O)C[C@@](O)(C(=O)CO)C[C@@H]3O[C@H]1C[C@H](N)[C@H](O)[C@H](C)O1 , what is its reported pIC50?
Ans: 6.42

====

# IC50 values compiled below
System: A549/T cells (PTX-resistant, ABCB1-overexpressing NSCLC cells)
assay: SRB cell cytotoxicity / MDR reversal assay
Assay type: cell-based, human
assay context: drug +0.5 μM nobiletin (N)
Kindly provide the numeric value in µM only, without the unit symbol.

Examples with their reported IC50 follow.
CC(=O)O[C@H]1C(=O)[C@@]2(C)[C@H]([C@H](OC(=O)c3ccccc3)[C@]3(O)C[C@H](OC(=O)[C@H](O)[C@@H](NC(=O)c4ccccc4)c4ccccc4)C(C)=C1C3(C)C)[C@]1(OC(C)=O)CO[C@@H]1C[C@@H]2O = 0.75
CC(=O)O[C@@]12CO[C@@H]1C[C@H](O)[C@@]1(C)C(=O)[C@H](O)C3=C(C)[C@@H](OC(=O)[C@H](O)[C@@H](NC(=O)OC(C)(C)C)c4ccccc4)C[C@@](O)([C@@H](OC(=O)c4ccccc4)[C@H]21)C3(C)C = 8.43
COc1cccc2c1C(=O)c1c(O)c3c(c(O)c1C2=O)C[C@@](O)(C(C)=O)C[C@@H]3O[C@H]1C[C@H](N)[C@H](O)[C@H](C)O1 = 5.97

Now, please, on to the next compound.
Q: For COc1cccc2c1C(=O)c1c(O)c3c(c(O)c1C2=O)C[C@@](O)(C(=O)CO)C[C@@H]3O[C@H]1C[C@H](N)[C@H](O)[C@H](C)O1 , what is its reported IC50?
Ans: 4.23
